Tested on: HCT-116
Experiment: Antiproliferative activity against human HCT-116 cells assessed as reduction in cell viability incubated for 48 hrs by MTT assay
Assay type: functional, cell-based
Details: HCT-116, 48 h
Metric: IC50

IN: Which IC50 value is on record for COc1ccc2nc(SCC(=O)N(Cc3ccc(OC)c(O)c3)c3cc(OC)c(OC)c(OC)c3)sc2c1 ?
OUT: 0.352 µM

IN: Which IC50 value is on record for COc1ccc(CN(C(=O)CSc2nc3cc(Cl)ccc3s2)c2cc(OC)c(OC)c(OC)c2)cc1O ?
OUT: 0.429 µM

IN: Which IC50 value is on record for COc1cc(N(Cc2ccc(C)cc2)C(=O)CSc2nc3ccccc3s2)cc(OC)c1OC ?
OUT: > 80 µM

IN: Which IC50 value is on record for COc1cc(N(Cc2ccc(Br)cc2)C(=O)CSc2nc3ccccc3s2)cc(OC)c1OC ?
OUT: 63.8 µM

IN: Which IC50 value is on record for COc1cc(N(Cc2ccc(Cl)cc2)C(=O)CSc2nc3ccccc3s2)cc(OC)c1OC ?
OUT: 60.3 µM
